target: UniProt P29323; test: KINOMEscan competition binding; conditions: compound 10.0 µM
Sequence (P29323 whole entry, looked up): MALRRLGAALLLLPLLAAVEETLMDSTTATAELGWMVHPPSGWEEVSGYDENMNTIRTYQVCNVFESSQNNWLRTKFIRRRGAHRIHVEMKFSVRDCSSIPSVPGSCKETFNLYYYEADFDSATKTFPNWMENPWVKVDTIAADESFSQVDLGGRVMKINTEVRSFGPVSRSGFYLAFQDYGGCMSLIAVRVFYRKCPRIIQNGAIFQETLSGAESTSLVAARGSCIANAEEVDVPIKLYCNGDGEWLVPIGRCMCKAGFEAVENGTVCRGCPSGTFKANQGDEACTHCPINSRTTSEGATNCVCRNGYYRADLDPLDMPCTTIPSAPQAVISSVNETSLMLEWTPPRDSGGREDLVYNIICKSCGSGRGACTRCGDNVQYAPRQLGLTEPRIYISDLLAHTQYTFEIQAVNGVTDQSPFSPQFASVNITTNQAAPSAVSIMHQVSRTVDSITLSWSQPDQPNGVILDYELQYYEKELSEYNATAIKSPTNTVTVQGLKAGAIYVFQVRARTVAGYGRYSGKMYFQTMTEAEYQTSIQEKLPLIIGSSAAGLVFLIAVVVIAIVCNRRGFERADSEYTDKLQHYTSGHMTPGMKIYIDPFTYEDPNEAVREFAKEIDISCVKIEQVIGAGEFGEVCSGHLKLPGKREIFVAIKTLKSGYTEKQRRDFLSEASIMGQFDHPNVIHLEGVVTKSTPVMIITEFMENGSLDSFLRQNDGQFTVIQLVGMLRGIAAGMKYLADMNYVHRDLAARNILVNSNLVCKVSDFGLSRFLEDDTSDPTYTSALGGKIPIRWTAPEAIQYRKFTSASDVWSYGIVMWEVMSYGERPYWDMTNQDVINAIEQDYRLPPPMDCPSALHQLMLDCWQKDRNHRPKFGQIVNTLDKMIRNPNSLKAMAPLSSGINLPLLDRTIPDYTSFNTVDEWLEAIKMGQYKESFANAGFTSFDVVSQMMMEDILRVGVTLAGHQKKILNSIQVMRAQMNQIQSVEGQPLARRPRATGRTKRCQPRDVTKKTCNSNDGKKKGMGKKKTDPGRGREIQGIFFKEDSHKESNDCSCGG
recorded_endpoint: kinase still bound, per cent of control (%)

> print(dat)
                                  structure                        recorded.endpoint  unit.of.measure  reported.measurement
1  CN(C)C/C=C/C(=O)Nc1ccc(C(=O)Nc2cccc(Nc3nccc(-c4cccnc4)n3)c2)cc1  kinase still bound, per cent of control                %                   100
2  COc1cc2ncnc(-n3nc(-c4ccccn4)nc3N)c2cc1OC  kinase still bound, per cent of control                %                    47
3  CNC(=O)c1ccc(Nc2cc(Nc3ccccc3S(=O)(=O)C(C)C)c3cc[nH]c3n2)nc1  kinase still bound, per cent of control                %                   100
4  CS(=O)(=O)N1CCN(Cc2cc3nc(-c4cccc5[nH]ncc45)nc(N4CCOCC4)c3s2)CC1  kinase still bound, per cent of control                %                   100
5  C=CC(=O)Nc1ccc(CN(C(=O)Nc2c(Cl)c(OC)cc(OC)c2Cl)c2cc(Nc3ccc(N4CCN(C)CC4)cc3)ncn2)cc1  kinase still bound, per cent of control                %                   100
6  COc1ccc(N(C(=O)Oc2c(C)cccc2C)c2ccnc(Nc3ccc(N4CCN(C)CC4)cc3)n2)c(OC)c1  kinase still bound, per cent of control                %                     0

* * *

molecular target: ACVR2B (human); experiment: KINOMEscan competition binding; conditions: compound 10.0 µM
Property: kinase still bound, per cent of control; scope: individual molecules
recorded_endpoint: kinase still bound, per cent of control (%)

> print(dat)
                                  structure                        recorded.endpoint  reported.measurement
1  COc1cc(N2CCN(C)CC2)ccc1Nc1ncc2c(n1)N(C)c1ccccc1C(=O)N2C  kinase still bound, per cent of control                   100
2  CCN(CC)CCCCNc1ncc2cc(-c3cc(OC)cc(OC)c3)c(NC(=O)NC(C)(C)C)nc2n1  kinase still bound, per cent of control                   100
3  CN(C)C/C=C/C(=O)Nc1ccc(C(=O)Nc2cccc(Nc3nccc(-c4cccnc4)n3)c2)cc1  kinase still bound, per cent of control                    98
4  COc1cc2ncn(-c3cc(OCc4ccccc4C(F)(F)F)c(C(N)=O)s3)c2cc1OC  kinase still bound, per cent of control                    58
5  COc1cc2ncnc(-n3nc(-c4ccccn4)nc3N)c2cc1OC  kinase still bound, per cent of control                    49
6  C=CC(=O)Nc1cc(-n2c(=O)ccc3cnc4ccc(-c5cn[nH]c5)cc4c32)ccc1C  kinase still bound, per cent of control                    21
7  O=C(Nc1cccc(Nc2ncc(Br)c(NCCc3cnc[nH]3)n2)c1)N1CCCC1  kinase still bound, per cent of control                   4.9

* * *

molecular target: UniProt Q9H422; test: KINOMEscan competition binding; conditions: compound 10.0 µM
Sequence (Q9H422 whole entry, looked up): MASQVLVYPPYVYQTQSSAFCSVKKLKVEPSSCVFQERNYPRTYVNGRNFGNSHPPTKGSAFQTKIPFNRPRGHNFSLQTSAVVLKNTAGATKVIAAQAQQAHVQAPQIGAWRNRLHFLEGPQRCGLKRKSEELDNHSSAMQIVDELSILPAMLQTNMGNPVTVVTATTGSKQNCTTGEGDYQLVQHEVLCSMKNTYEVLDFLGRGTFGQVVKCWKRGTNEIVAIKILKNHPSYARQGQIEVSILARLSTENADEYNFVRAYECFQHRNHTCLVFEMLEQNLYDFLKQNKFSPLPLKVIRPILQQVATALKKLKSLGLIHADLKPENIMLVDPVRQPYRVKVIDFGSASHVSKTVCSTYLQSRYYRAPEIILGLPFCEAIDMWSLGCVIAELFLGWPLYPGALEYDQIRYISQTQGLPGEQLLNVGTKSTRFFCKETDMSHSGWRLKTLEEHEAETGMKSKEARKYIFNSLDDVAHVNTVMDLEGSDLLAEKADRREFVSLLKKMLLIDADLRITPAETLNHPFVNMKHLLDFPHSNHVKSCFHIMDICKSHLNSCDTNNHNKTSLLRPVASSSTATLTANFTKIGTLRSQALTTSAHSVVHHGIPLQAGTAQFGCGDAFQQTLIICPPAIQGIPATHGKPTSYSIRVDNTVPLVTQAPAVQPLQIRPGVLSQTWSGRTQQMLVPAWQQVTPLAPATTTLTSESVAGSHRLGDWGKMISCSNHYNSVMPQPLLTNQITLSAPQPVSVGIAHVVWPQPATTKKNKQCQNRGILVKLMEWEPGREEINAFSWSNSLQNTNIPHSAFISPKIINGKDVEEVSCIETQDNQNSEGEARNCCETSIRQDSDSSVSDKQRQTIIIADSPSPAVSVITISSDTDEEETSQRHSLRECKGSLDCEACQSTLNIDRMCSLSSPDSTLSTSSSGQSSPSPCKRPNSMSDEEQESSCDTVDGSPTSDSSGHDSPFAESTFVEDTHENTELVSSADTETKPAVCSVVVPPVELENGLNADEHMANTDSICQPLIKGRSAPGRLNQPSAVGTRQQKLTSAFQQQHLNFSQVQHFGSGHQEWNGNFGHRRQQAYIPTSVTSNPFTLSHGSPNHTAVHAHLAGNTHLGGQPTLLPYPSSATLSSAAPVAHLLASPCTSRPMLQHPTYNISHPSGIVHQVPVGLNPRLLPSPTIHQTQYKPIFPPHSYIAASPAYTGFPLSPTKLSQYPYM
Doc: threshold 20% (exclusive). Items with kinase still bound, per cent of control beneath it return Y; others return N.

> print(dat)
                                  structure  target.or.test.system  group.label
1  O=C1NC(=O)/C(=C/c2ccc3nccc(-c4ccncc4)c3c2)S1         UniProt Q9H422            Y
2  O=c1cc(N2CCOCC2)oc2c(-c3cccc4c3sc3ccccc34)cccc12         UniProt Q9H422            N
3  CS(=O)(=O)N1CCN(Cc2cc3nc(-c4cccc5[nH]ncc45)nc(N4CCOCC4)c3s2)CC1         UniProt Q9H422            N
4  COc1cc(C(=O)N2CCC(N3CCN(C)CC3)CC2)ccc1Nc1ncc2c(n1)N(C)c1ccccc1C(=O)N2C         UniProt Q9H422            N
5  O=C(Nc1cccc(Nc2ncc(Br)c(NCCc3cnc[nH]3)n2)c1)N1CCCC1         UniProt Q9H422            Y
6  N#CCNC(=O)c1ccc(-c2ccnc(Nc3ccc(N4CCOCC4)cc3)n2)cc1         UniProt Q9H422            Y
7  CNC(=O)c1cc(Oc2ccc(NC(=O)Nc3ccc(Cl)c(C(F)(F)F)c3)cc2)ccn1         UniProt Q9H422            Y

* * *

Recorded kinase still bound, per cent of control, one value per entry.
target: MAP4K2 (human); assay: KINOMEscan competition binding; conditions: compound 10.0 µM
recorded_endpoint: kinase still bound, per cent of control (%)

> print(dat)
                                   structure                        recorded.endpoint  unit.of.measure  reported.measurement
 1  N#CCNC(=O)c1ccc(-c2ccnc(Nc3ccc(N4CCOCC4)cc3)n2)cc1  kinase still bound, per cent of control                %                    40
 2  C=CC(=O)Nc1ccc(CN(C(=O)Nc2c(Cl)c(OC)cc(OC)c2Cl)c2cc(Nc3ccc(N4CCN(C)CC4)cc3)ncn2)cc1  kinase still bound, per cent of control                %                   100
 3  O=C(Nc1cccc(Nc2ncc(Br)c(NCCc3cnc[nH]3)n2)c1)N1CCCC1  kinase still bound, per cent of control                %                  0.15
 4  COc1cc(C(=O)N2CCC(N3CCN(C)CC3)CC2)ccc1Nc1ncc2c(n1)N(C)c1ccccc1C(=O)N2C  kinase still bound, per cent of control                %                   100
 5  CS(=O)(=O)N1CCN(Cc2cc3nc(-c4cccc5[nH]ncc45)nc(N4CCOCC4)c3s2)CC1  kinase still bound, per cent of control                %                   100
 6  NC(=O)Nc1cc(-c2cccc(F)c2)sc1C(=O)N[C@@H]1CCCNC1  kinase still bound, per cent of control                %                     0
 7  CNC(=O)c1cc(Oc2ccc(NC(=O)Nc3ccc(Cl)c(C(F)(F)F)c3)cc2)ccn1  kinase still bound, per cent of control                %                   100
 8  COc1cc(N2CCN(C)CC2)ccc1Nc1ncc2c(n1)N(C)c1ccccc1C(=O)N2C  kinase still bound, per cent of control                %                   100
 9  Cc1n[nH]c2ccc(-c3cncc(OC[C@@H](N)Cc4c[nH]c5ccccc45)c3)cc12  kinase still bound, per cent of control                %                   8.8
10  COCC(=O)NC/C=C/c1ccc2ncnc(Nc3ccc(Oc4ccc(C)nc4)c(C)c3)c2c1  kinase still bound, per cent of control                %                   100
11  O=C1NC(=O)/C(=C/c2ccc3nccc(-c4ccncc4)c3c2)S1  kinase still bound, per cent of control                %                   5.8
12  CCN(CC)CCCCNc1ncc2c(n1)N(C)C(=O)N(c1c(Cl)c(OC)cc(OC)c1Cl)C2  kinase still bound, per cent of control                %                   100

* * *

target: AXL (human) (UniProt P30530); test: KINOMEscan competition binding; conditions: compound 10.0 µM
Sequence (P30530 whole entry, looked up): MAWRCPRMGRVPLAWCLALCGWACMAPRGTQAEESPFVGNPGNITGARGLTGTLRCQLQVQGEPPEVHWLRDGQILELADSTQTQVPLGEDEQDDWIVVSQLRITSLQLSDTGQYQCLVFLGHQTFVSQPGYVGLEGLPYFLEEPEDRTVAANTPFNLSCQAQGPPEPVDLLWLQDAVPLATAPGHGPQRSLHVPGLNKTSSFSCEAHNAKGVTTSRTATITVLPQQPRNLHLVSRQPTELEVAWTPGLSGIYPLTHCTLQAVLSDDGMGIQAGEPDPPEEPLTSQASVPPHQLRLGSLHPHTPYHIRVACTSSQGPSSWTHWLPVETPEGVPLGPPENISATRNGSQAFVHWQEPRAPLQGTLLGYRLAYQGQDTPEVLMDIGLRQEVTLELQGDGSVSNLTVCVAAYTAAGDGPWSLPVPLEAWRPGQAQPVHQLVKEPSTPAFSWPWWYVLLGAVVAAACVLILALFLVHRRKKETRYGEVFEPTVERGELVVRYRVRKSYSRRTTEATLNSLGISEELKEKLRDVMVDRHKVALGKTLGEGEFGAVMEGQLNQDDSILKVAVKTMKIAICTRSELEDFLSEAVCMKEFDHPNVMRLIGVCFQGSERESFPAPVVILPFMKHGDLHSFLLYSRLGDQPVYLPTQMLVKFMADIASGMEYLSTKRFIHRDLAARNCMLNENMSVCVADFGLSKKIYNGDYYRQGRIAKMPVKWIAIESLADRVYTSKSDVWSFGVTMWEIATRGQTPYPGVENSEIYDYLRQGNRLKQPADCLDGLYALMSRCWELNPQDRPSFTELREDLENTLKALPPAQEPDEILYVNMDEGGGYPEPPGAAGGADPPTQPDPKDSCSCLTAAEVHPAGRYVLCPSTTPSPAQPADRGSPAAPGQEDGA
recorded_endpoint: kinase still bound, per cent of control

> print(dat)
                                  structure                        recorded.endpoint  reported.measurement
1  NC(=O)Nc1cc(-c2cccc(F)c2)sc1C(=O)N[C@@H]1CCCNC1  kinase still bound, per cent of control                    0%
2  CNC(=O)c1cc(Oc2ccc(NC(=O)Nc3ccc(Cl)c(C(F)(F)F)c3)cc2)ccn1  kinase still bound, per cent of control                  7.8%
3  COc1ccc(N(C(=O)Oc2c(C)cccc2C)c2ccnc(Nc3ccc(N4CCN(C)CC4)cc3)n2)c(OC)c1  kinase still bound, per cent of control                   17%
